Taken from the supplement of paper PMC10567573.

Kindly state protein stability index for each of the entries shown.
B1: CDKN1A (parent)
chain: RRQTSMTDFYHSKRRLIFSKRKP

Variants of: B1
Assay Text: protein stability index of a GFP-peptide fusion (GPS, HEK-293T) (PSI 1-6); higher = more stable;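 also: lentivirally expressed fusions sorted by FACS into six bins by GFP to DsRed ratio, PSI derived from sequencing read proportions per bin multiplied by bin number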
Run Parameters: c terminus: native
Output: the number by itself.

Form: variant = F18Q ; protein stability index = 1.79

Form: variant = T7L ; protein stability index = 1.8

Form: variant = R14S ; protein stability index = 1.83

Form: variant = D8R ; protein stability index = 1.14

Form: variant = Y10Q ; protein stability index = 2.75

Form: variant = K13Y ; protein stability index = 2.37

Form: variant = R2G ; protein stability index = 3.55

Form: variant = K13T ; protein stability index = 2.31

Form: variant = I17A ; protein stability index = 2.48

Form: variant = K13F ; protein stability index = 2.44

Form: variant = R15T ; protein stability index = 2.34

Form: variant = M6K ; protein stability index = 3.44

Form: variant = K20A ; protein stability index = 2.73

Form: variant = M6P ; protein stability index = 1.34

Form: variant = L16F ; protein stability index = 3.4

Form: variant = R21E ; protein stability index = 3.44

Form: variant = R1K ; protein stability index = 2.57

Form: variant = K22I ; protein stability index = 2.35

Form: variant = F18S ; protein stability index = 3.17

Form: variant = M6N ; protein stability index = 3.37

Form: variant = K20S ; protein stability index = 2.23

Form: variant = S5C ; protein stability index = 1.67

Form: variant = F18A ; protein stability index = 2.87

Form: variant = R14T ; protein stability index = 1.99

Form: variant = S12W ; protein stability index = 2.39

Form: variant = T7Y ; protein stability index = 1.79

Form: variant = D8G ; protein stability index = 2.29

Form: variant = F18K ; protein stability index = 2.26

Form: variant = D8K ; protein stability index = 3.12

Form: variant = K22Y ; protein stability index = 2.55

Form: variant = K13E ; protein stability index = 3.4
